Reference source: the domain aggregation screens of Martell et al. (2025)

test method notes: soluble fraction after stress (log2 fold change); higher = more stays soluble; pooled small domains, quantitative proteomics
condition: stress: 50 degC
parameter: soluble fraction (log2)
Field format: numeric only.

Would you please look over these solved cases?
{"polymer sequence": "HMSKKTQKDEVVDLFLKTGNEPLHYKEISKKTGIIVHNVRRITGQNVVGKTDNPVFKRVSPGVYKLID", "soluble fraction (log2)": -0.546}
{"polymer sequence": "HMLSNLYAVLGVGRRATPDEITAAFDAWNARADAGEPIDDPLWERVRYAWDVLSSPSRRDLYDSLVDDATG", "soluble fraction (log2)": -1.71}
{"polymer sequence": "HMENLFPDYTMQDYRIVRSELSSKFKVQTVPVTTATATENKIVRQEPEAGSRITEGMTVILYYSIGPE", "soluble fraction (log2)": -0.0582}

-- ask So what's the measured soluble fraction (log2) for this one? `HMLTGNTAKLFAHLVEVMNPKEFVKINRQTVIVEAGIPRGSVGAAIAKLLETGHLIANASGAYKLT`
-- reply 0.322

-- ask So what's the measured soluble fraction (log2) for this one? `HMSRAHTELEEKLLTMLEENDMTLPMRVISNIASRIEGIIIPEEKILEVLKKSYDRYREHQMD`
-- reply 0.0257

-- ask So what's the measured soluble fraction (log2) for this one? `HMQADEENPKYPVITDGVIQLEVLESIDKTEEWLVERLAKDGYNNVSEIFIAEYENGNLSIVT`
-- reply 0.148

-- ask So what's the measured soluble fraction (log2) for this one? `HMEKRLDYTFGLNKEQLLYLTKSIKDGDFYNVSFIDGTEKKLNRVGSTKEVHKYVNFLMTNDGIVKK`
-- reply 0.0518

-- ask So what's the measured soluble fraction (log2) for this one? `HMGNIYKALLGKLEKQLGFLPEGTKLPPEQELAEKFGVSKPTLRRALAELAVRGIIVKQNGIGSVVAGS`
-- reply -0.142

-- ask So what's the measured soluble fraction (log2) for this one? `HMSGEVLTAVVPETASGERLDKVLPQIFPPYSRSQLQTWLKEGRVTLDREIPAARLAVIGGETLRLEVPSL`
-- reply -0.145

-- ask So what's the measured soluble fraction (log2) for this one? `HMGHTVHAVPEAADRQRLDVFVGNLHPTISRAYIQKLSKEDQILVNGKPEKAGFKLRTGHSVSVPDMSE`
-- reply 0.0769

-- ask So what's the measured soluble fraction (log2) for this one? `HMADKSLLELPGLDGDKVSALVTAGVRNVNDLADLATDELVEKTGFDEKTAADLIIAARAVVY`
-- reply 0.331

-- ask So what's the measured soluble fraction (log2) for this one? `HMDAPIIRLLNSLVQRAVTTTASDIHIEPFEGETKVRMRIDGVIIDYVTLQRALHQPLIARIKIMSNLD`
-- reply -0.202

-- ask So what's the measured soluble fraction (log2) for this one? `HMGIVTMPGQGSKMRFDFDATGDLPSSTSWRGMFAYANNTKRAYVSTGTTMGGYNGWRQLIAMDEYGNYQT`
-- reply -0.0345

-- ask So what's the measured soluble fraction (log2) for this one? `HMTGQLTEEELKQRQERAMSNPEIQGILSDPVMRQVLQDMSTDPKAAAEHQRNPTIMAKIQKLINAGIVQV`
-- reply 0.11

-- ask So what's the measured soluble fraction (log2) for this one? `HMLSTGIIIGDNVALRKTASSNGGIITRLDEGTVVKILASNVNAEWYQVEAGTKTGYVNRLYVNID`
-- reply -0.293

-- ask So what's the measured soluble fraction (log2) for this one? `HMPAWKINQELQATVIATKANQTRLRIEGQTFETQTAIALKPGQSLLIKVVSLEPQISFALI`
-- reply -1.45

-- ask So what's the measured soluble fraction (log2) for this one? `HMQESTILPAQKSAISSLATSAGFSSENLKRYLLQNYGVDLKDLTRSQGAEVIKAFQSGNVSKP`
-- reply 0.0882
